target: SARS-CoV-2 WA1 RBD (SARS-CoV-2 USA-WA1/2020 (MT246667.1)); assay: ELISA; settings: both partners purified
measured-metric: binding result

M8a-34 IgG (antibody, V domains shown, copies: 2 + 2) VH: QVQLQQPGAELVKPGASVKMSCKASGYTFITYWITWVKQRPGQGLEWIGDIYPGGGRTNYNEKFKSKATLTVDTSSSTAYMQLRSLTSEDSAVYYCARYDGNYVGYYYAMDYWGQGTSVTVSS VL: DIVLTQSPVSLAVSLGQRATISCRASESVDFYGNSFIYWYQQKPGQAPKLLIYRASNLESGIPARFSGSGSRTDFTLTIHPVEADDVATYYCQQSIEDPRTFGGGTKLEIK	binds

Measured values drawn from paper PMC9606073 for this set.
